# Target System: HCV polymerase (Hepatitis C virus genotype 1b)
# Construct: a region encoding NS5B (J Virol 1991 March, 65(3), 1105-13, 544 amino acids after deletion of 47 amino acids on the C-terminal); 6xHis (C); made in house; host or cells: Escherichia coli
# Sequence (P26663 2420-2963): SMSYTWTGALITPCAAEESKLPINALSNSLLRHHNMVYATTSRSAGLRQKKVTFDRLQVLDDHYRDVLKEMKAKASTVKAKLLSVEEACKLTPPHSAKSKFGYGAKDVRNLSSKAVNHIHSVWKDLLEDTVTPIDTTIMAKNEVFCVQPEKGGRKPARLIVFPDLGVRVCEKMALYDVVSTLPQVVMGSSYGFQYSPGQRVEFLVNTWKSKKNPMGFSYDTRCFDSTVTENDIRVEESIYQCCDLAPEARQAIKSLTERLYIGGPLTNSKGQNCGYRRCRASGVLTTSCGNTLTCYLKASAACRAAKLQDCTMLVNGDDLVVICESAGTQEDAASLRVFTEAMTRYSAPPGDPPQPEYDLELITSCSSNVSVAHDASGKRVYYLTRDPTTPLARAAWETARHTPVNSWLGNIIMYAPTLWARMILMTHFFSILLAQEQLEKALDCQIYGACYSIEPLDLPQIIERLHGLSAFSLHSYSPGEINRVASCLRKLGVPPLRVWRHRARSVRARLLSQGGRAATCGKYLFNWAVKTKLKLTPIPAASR
# Method Summary: biochemical
# Design: species or system HCV BK strain
# Protocol: The evaluation of the HCV polymerase inhibitory activity of the compound of the present invention is explained in the following. […] 10% Trichloroacetic acid at 4° C. and 1% sodium pyrophosphate solution (150 μl) were added to this reaction mixture to stop the reaction. […] A liquid scintillation cocktail (Packard) was added and the radioactivity of RNA synthesized by the enzyme reaction was measured on a liquid scintillation counter. […]
pIC50: −log10 of the molar value. Counter-ions that a name gives are not always drawn.
Give measured pIC50 for each item. Keep answers brief.

> print(dat)
                                   compound  observed.measurement
1  CC(=O)Nc1cccc(COc2ccc3c(c2)N(CCN(C)C)CCn2c-3c(C3CCCCC3)c3ccc(C(=O)O)cc32)c1 [Example 1-582, dihydrochloride]                > 7.00
2  COc1ccc2c(c1)OCCn1c-2c(C2CCCCC2)c2ccc(C(=O)NC3(c4nc5cc(C(C)(C)O)c(OC)cc5[nH]4)CCC3)cc21 [Example 2-447]                > 7.00
3  CN(CCN1CCn2c(c(C3CCCCC3)c3ccc(C(=O)O)cc32)-c2ccccc21)C1CCOC1 (stereo not shown) [Example 1-321]                > 7.00
4  COc1ccc2c(c1)OCCn1c-2c(C2CCCCC2)c2ccc(C(=O)N[C@@H](Cc3ccc(O)c(Cl)c3)C(=O)O)cc21 [Example 2-365]                > 7.00
5  CCC1CCCN(CCCN2CCn3c(c(C4CCCCC4)c4ccc(C(=O)O)cc43)-c3ccc(Cl)cc32)C1 (stereo not shown) [Example 1-372, dihydrochloride]                > 7.00
6  O=C(O)c1ccc2c(C3CCCCC3)c3n(c2c1)C(O)c1ccccc1-3 (stereo not shown) [Example 5-6]          6.00 to 7.00

Let's switch to this compound now.
Tell me pIC50 reported for CC(C)(C)NC(=O)c1ccc2c(C3CCCCC3)c3n(c2c1)CCOc1ccccc1-3 [Example 2-165] 6.00 to 7.00

----------
Give measured pIC50 for each item. Keep answers brief.
# Target System: HCV polymerase (Hepatitis C virus genotype 1b)
# Construct: a region encoding NS5B (J Virol 1991 March, 65(3), 1105-13, 544 amino acids after deletion of 47 amino acids on the C-terminal); 6xHis (C); made in house; host or cells: Escherichia coli
# Method Summary: biochemical
# Parameters: species or system HCV BK strain
pIC50: −log10 of the molar value. Where a name gives a salt, the structure may show the parent alone.

Provide reported pIC50 for each item, in the same order as listed.
1. COC(=O)C(CN1CCC(O)CC1)NC(=O)c1ccc2c(C3CCCCC3)c3n(c2c1)CCOc1cc(OC)ccc1-3 (stereo not shown) [Example 2-379, monohydrochloride]
2. O=C(O)c1ccc2c(C3CCCCC3)c3n(c2c1)CCN(CCCN1CCCC1)c1cc(Cl)ccc1-3 [Example 1-269, dihydrochloride]

1. 6.00 to 7.00
2. > 7.00

Provide reported pIC50 for each item, in the same order as listed.
1. CN(C)C(=O)N1CCn2c(c(C3CCCCC3)c3ccc(C(=O)O)cc32)-c2ccccc21
2. Cc1nc(C(C)(C)NC(=O)c2ccc3c(C4CCCCC4)c4n(c3c2)CCOc2ccccc2-4)[nH]c1C(=O)O
3. COC(C)(C)[C@@H]1CCCN(CCN2CCn3c(c(C4CCCCC4)c4ccc(C(=O)O)cc43)-c3ccc(C)cc32)C1 [Example 1-541, dihydrochloride]
4. O=C(Nc1ccc(OCc2ccccc2)cc1)c1ccc2c(C3CCCCC3)c3n(c2c1)CCOc1ccccc1-3
5. COc1ccc2c(c1)N(CC(C)C)CCn1c-2c(C2CCCCC2)c2ccc(C(=O)NC3(C(=O)Nc4ccc(/C=C/C(=O)O)cc4)CCC3)cc21

1. 6.00 to 7.00
2. > 7.00
3. > 7.00
4. 6.00 to 7.00
5. > 7.00

Where do these numbers come from? They come from patent US20070049593A1.
